Target: Axl (UniProt P30530)
Sequence (P30530 26-451 limits assumed): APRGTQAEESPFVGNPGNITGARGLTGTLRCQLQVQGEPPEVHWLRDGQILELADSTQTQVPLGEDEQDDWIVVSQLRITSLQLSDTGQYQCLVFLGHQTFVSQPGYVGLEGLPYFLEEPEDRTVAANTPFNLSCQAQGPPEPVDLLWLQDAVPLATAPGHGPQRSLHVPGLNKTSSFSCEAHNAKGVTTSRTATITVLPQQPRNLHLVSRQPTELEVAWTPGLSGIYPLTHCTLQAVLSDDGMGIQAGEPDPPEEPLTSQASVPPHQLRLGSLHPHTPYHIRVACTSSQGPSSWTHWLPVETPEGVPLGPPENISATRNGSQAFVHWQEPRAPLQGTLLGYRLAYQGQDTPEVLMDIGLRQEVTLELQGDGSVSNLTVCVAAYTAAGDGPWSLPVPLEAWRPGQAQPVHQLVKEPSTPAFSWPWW
Test: ELISA, 1:3 dilution
assay.readout: Affinity ELISA CPE mutant ratio (1:3, pH 6.0/7.4)

>>> reported_value("HC-G111H (antibody, V domains shown) VH: EVQLVQSGAEVKKPGATVKISCKVSGYSFTGHTMNWIRQPPGKGLEWIGLIKPSNGGTSYNQKFKGRVTISADKSISTAYLQWSSLKASDTAMYYCAHGHYESYFAMDYWHQGTLVTVSS VL: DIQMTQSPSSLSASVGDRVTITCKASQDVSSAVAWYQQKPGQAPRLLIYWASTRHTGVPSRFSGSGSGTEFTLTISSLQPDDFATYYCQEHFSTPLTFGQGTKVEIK")
1.06
>>> reported_value("LC-A032L (antibody, V domains shown) VH: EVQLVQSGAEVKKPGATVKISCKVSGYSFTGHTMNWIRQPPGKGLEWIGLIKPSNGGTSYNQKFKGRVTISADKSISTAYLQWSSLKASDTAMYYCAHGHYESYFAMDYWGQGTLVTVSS VL: DIQMTQSPSSLSASVGDRVTITCKASQDVSSLVAWYQQKPGQAPRLLIYWASTRHTGVPSRFSGSGSGTEFTLTISSLQPDDFATYYCQEHFSTPLTFGQGTKVEIK")
1.98
>>> reported_value("HC-E102A (antibody, V domains shown) VH: EVQLVQSGAEVKKPGATVKISCKVSGYSFTGHTMNWIRQPPGKGLEWIGLIKPSNGGTSYNQKFKGRVTISADKSISTAYLQWSSLKASDTAMYYCAHGHYASYFAMDYWGQGTLVTVSS VL: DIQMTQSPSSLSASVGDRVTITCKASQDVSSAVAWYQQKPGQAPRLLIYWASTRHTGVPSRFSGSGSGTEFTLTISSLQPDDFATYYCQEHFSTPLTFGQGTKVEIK")
1.54
>>> reported_value("LC-V029N (antibody, V domains shown) VH: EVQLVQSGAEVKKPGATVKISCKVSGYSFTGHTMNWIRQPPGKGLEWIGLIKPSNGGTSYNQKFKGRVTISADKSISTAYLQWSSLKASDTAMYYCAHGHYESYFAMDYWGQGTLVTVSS VL: DIQMTQSPSSLSASVGDRVTITCKASQDNSSAVAWYQQKPGQAPRLLIYWASTRHTGVPSRFSGSGSGTEFTLTISSLQPDDFATYYCQEHFSTPLTFGQGTKVEIK")
2.6
>>> reported_value("HC-E102R (antibody, V domains shown) VH: EVQLVQSGAEVKKPGATVKISCKVSGYSFTGHTMNWIRQPPGKGLEWIGLIKPSNGGTSYNQKFKGRVTISADKSISTAYLQWSSLKASDTAMYYCAHGHYRSYFAMDYWGQGTLVTVSS VL: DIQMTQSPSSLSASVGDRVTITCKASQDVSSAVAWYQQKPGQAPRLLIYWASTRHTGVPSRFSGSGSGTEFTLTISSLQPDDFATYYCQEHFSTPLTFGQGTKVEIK")
3.7
